Measured MIC50 accompanies every entry in the list below.
Test system: Trichoderma
Test: Antimicrobial activity against Trichoderma spp. by broth microdilution method
Format: functional
*1 amine or outer side, *2 acyl side, *3 side chain or, on linkers, in order; H or OH if unused. Where a SMILES comes first, the peptide text is derived from it. Bridges are numbered along the chain shown (N, C = ends). [ ]: non-standard residue; d: D form. The star is where a group is joined. pTerphenylCO(4''-OnC5H11) = CCCCCOc1ccc(-c2ccc(-c3ccc(C(=O)*)cc3)cc2)cc1; Orn(4R-OH,5R-OH) = O=C([C@H](C[C@@H](O)[C@@H](O)N[*:3])N[*:1])[*:2]; hTyr(3S-OH,4S-OH) = N[C@H](C(=O)O)[C@H](O)[C@@H](O)c1ccc(O)cc1; Pro(3S-OH,4S-Me) = C[C@H]1CN[C@H](C(=O)O)[C@H]1O; Hyp = O=C(O)[C@@H]1C[C@@H](O)CN1

[
  {
    "Compound": "C[C@@H]1[C@H](O)[C@@H](C)/C=C/C=C/C=C/C=C/C=C/C=C/C=C/[C@H](O[C@@H]2O[C@H](C)[C@@H](O)[C@H](N)[C@@H]2O)C[C@@H]2O[C@](O)(C[C@@H](O)C[C@@H](O)[C@H](O)CC[C@@H](O)C[C@@H](O)CC(=O)O[C@H]1C)C[C@H](O)[C@H]2C(=O)O",
    "MIC50": "0.5 µg/mL"
  },
  {
    "Compound": "CCCCCOc1ccc(-c2ccc(-c3ccc(C(=O)N[C@H]4C[C@@H](O)[C@@H](O)NC(=O)[C@@H]5[C@@H](O)[C@@H](C)CN5C(=O)[C@H]([C@@H](C)O)NC(=O)[C@H]([C@H](O)[C@@H](O)c5ccc(O)cc5)NC(=O)[C@@H]5C[C@@H](O)CN5C(=O)[C@H]([C@@H](C)O)NC4=O)cc3)cc2)cc1 [ANIDULAFUNGIN] ({pTerphenylCO(4''-OnC5H11)}-[Orn(4R-OH,5R-OH)]T[Hyp][hTyr(3S-OH,4S-OH)]T[Pro(3S-OH,4S-Me)]; lactam 1-C)",
    "MIC50": "> 16 µg/mL"
  },
  {
    "Compound": "CC[C@@H]([C@H](C)O)n1ncn(-c2ccc(N3CCN(c4ccc(OC[C@@H]5CO[C@@](Cn6cncn6)(c6ccc(F)cc6F)C5)cc4)CC3)cc2)c1=O",
    "MIC50": "4 µg/mL"
  }
]

---

System: Alternaria alternata
Experiment: Antimicrobial activity against Alternaria alternata by broth microdilution method
Format: functional
*1 amine or outer side, *2 acyl side, *3 side chain or, on linkers, in order; H or OH if unused. Where a SMILES comes first, the peptide text is derived from it. Bridges are numbered along the chain shown (N, C = ends). [ ]: non-standard residue; d: D form. The star is where a group is joined. hTyr(3S-OH,4S-OH,3'-OSO3H) = N[C@H](C(=O)O)[C@H](O)[C@@H](O)c1ccc(O)c(OS(=O)(=O)O)c1; Orn(4R-OH,5R-OH) = O=C([C@H](C[C@@H](O)[C@@H](O)N[*:3])N[*:1])[*:2]; Pro(3S-OH,4S-Me) = C[C@H]1CN[C@H](C(=O)O)[C@H]1O; X1 = CCCCCOc1ccc(-c2cc(-c3ccc(C(=O)*)cc3)no2)cc1; Gln(3R-OH) = NC(=O)C[C@@H](O)[C@H](N)C(=O)O; Hyp = O=C(O)[C@@H]1C[C@@H](O)CN1

[
  {
    "Compound": "CCCCCOc1ccc(-c2cc(-c3ccc(C(=O)N[C@H]4C[C@@H](O)[C@@H](O)NC(=O)[C@@H]5[C@@H](O)[C@@H](C)CN5C(=O)[C@H]([C@H](O)CC(N)=O)NC(=O)[C@H]([C@H](O)[C@@H](O)c5ccc(O)c(OS(=O)(=O)O)c5)NC(=O)[C@@H]5C[C@@H](O)CN5C(=O)[C@H]([C@@H](C)O)NC4=O)cc3)no2)cc1 [MICAFUNGIN] (X1-[Orn(4R-OH,5R-OH)]T[Hyp][hTyr(3S-OH,4S-OH,3'-OSO3H)][Gln(3R-OH)][Pro(3S-OH,4S-Me)]; lactam 1-C)",
    "MIC90": "> 16 µg/mL"
  },
  {
    "Compound": "C[C@@H]1[C@H](O)[C@@H](C)/C=C/C=C/C=C/C=C/C=C/C=C/C=C/[C@H](O[C@@H]2O[C@H](C)[C@@H](O)[C@H](N)[C@@H]2O)C[C@@H]2O[C@](O)(C[C@@H](O)C[C@@H](O)[C@H](O)CC[C@@H](O)C[C@@H](O)CC(=O)O[C@H]1C)C[C@H](O)[C@H]2C(=O)O [AMPHOTERICIN B]",
    "MIC90": "> 16 µg/mL"
  },
  {
    "Compound": "CC[C@@H]([C@H](C)O)n1ncn(-c2ccc(N3CCN(c4ccc(OC[C@@H]5CO[C@@](Cn6cncn6)(c6ccc(F)cc6F)C5)cc4)CC3)cc2)c1=O [POSACONAZOLE]",
    "MIC90": "> 8 µg/mL"
  },
  {
    "Compound": "C[C@@H](c1ncncc1F)[C@](O)(Cn1cncn1)c1ccc(F)cc1F [VORICONAZOLE]",
    "MIC90": "> 8 µg/mL"
  }
]

---

Measured MIC90 of individual entries
System: Paecilomyces variotii
Assay: Antimicrobial activity against Paecilomyces variotii by broth microdilution method
Assay type: functional
*1 amine or outer side, *2 acyl side, *3 side chain or, on linkers, in order; H or OH if unused. Where a SMILES comes first, the peptide text is derived from it. Bridges are numbered along the chain shown (N, C = ends). [ ]: non-standard residue; d: D form. The star is where a group is joined. hTyr(3S-OH,4S-OH,3'-OSO3H) = N[C@H](C(=O)O)[C@H](O)[C@@H](O)c1ccc(O)c(OS(=O)(=O)O)c1; pTerphenylCO(4''-OnC5H11) = CCCCCOc1ccc(-c2ccc(-c3ccc(C(=O)*)cc3)cc2)cc1; Orn(4R-OH,5R-OH) = O=C([C@H](C[C@@H](O)[C@@H](O)N[*:3])N[*:1])[*:2]; hTyr(3S-OH,4S-OH) = N[C@H](C(=O)O)[C@H](O)[C@@H](O)c1ccc(O)cc1; Pro(3S-OH,4S-Me) = C[C@H]1CN[C@H](C(=O)O)[C@H]1O; X1 = CCCCCOc1ccc(-c2cc(-c3ccc(C(=O)*)cc3)no2)cc1; Gln(3R-OH) = NC(=O)C[C@@H](O)[C@H](N)C(=O)O; Hyp = O=C(O)[C@@H]1C[C@@H](O)CN1
Measure: MIC90 (µg/mL)

[
  {
    "Compound": "CC[C@H](C)C[C@H](C)CCCCCCCCC(=O)N[C@H]1C[C@@H](O)[C@@H](NCCN)NC(=O)[C@@H]2[C@@H](O)CCN2C(=O)[C@H]([C@H](O)CCN)NC(=O)[C@H]([C@H](O)[C@@H](O)c2ccc(O)cc2)NC(=O)[C@@H]2C[C@@H](O)CN2C(=O)[C@H]([C@@H](C)O)NC1=O",
    "Measure": "MIC90",
    "Display unit": "µg/mL",
    "Rel": "=",
    "Recorded result": 4
  },
  {
    "Compound": "C[C@@H](c1ncncc1F)[C@](O)(Cn1cncn1)c1ccc(F)cc1F",
    "Measure": "MIC90",
    "Display unit": "µg/mL",
    "Rel": ">",
    "Recorded result": 8
  },
  {
    "Compound": "CCCCCOc1ccc(-c2cc(-c3ccc(C(=O)N[C@H]4C[C@@H](O)[C@@H](O)NC(=O)[C@@H]5[C@@H](O)[C@@H](C)CN5C(=O)[C@H]([C@H](O)CC(N)=O)NC(=O)[C@H]([C@H](O)[C@@H](O)c5ccc(O)c(OS(=O)(=O)O)c5)NC(=O)[C@@H]5C[C@@H](O)CN5C(=O)[C@H]([C@@H](C)O)NC4=O)cc3)no2)cc1 [MICAFUNGIN] (X1-[Orn(4R-OH,5R-OH)]T[Hyp][hTyr(3S-OH,4S-OH,3'-OSO3H)][Gln(3R-OH)][Pro(3S-OH,4S-Me)]; lactam 1-C)",
    "Measure": "MIC90",
    "Display unit": "µg/mL",
    "Rel": "=",
    "Recorded result": 0.03
  },
  {
    "Compound": "C[C@@H]1[C@H](O)[C@@H](C)/C=C/C=C/C=C/C=C/C=C/C=C/C=C/[C@H](O[C@@H]2O[C@H](C)[C@@H](O)[C@H](N)[C@@H]2O)C[C@@H]2O[C@](O)(C[C@@H](O)C[C@@H](O)[C@H](O)CC[C@@H](O)C[C@@H](O)CC(=O)O[C@H]1C)C[C@H](O)[C@H]2C(=O)O",
    "Measure": "MIC90",
    "Display unit": "µg/mL",
    "Rel": "=",
    "Recorded result": 0.5
  },
  {
    "Compound": "CCCCCOc1ccc(-c2ccc(-c3ccc(C(=O)N[C@H]4C[C@@H](O)[C@@H](O)NC(=O)[C@@H]5[C@@H](O)[C@@H](C)CN5C(=O)[C@H]([C@@H](C)O)NC(=O)[C@H]([C@H](O)[C@@H](O)c5ccc(O)cc5)NC(=O)[C@@H]5C[C@@H](O)CN5C(=O)[C@H]([C@@H](C)O)NC4=O)cc3)cc2)cc1 [ANIDULAFUNGIN] ({pTerphenylCO(4''-OnC5H11)}-[Orn(4R-OH,5R-OH)]T[Hyp][hTyr(3S-OH,4S-OH)]T[Pro(3S-OH,4S-Me)]; lactam 1-C)",
    "Measure": "MIC90",
    "Display unit": "µg/mL",
    "Rel": "=",
    "Recorded result": 0.03
  },
  {
    "Compound": "CCC(C)n1ncn(-c2ccc(N3CCN(c4ccc(OCC5COC(Cn6cncn6)(c6ccc(Cl)cc6Cl)O5)cc4)CC3)cc2)c1=O (configuration not stated)",
    "Measure": "MIC90",
    "Display unit": "µg/mL",
    "Rel": "=",
    "Recorded result": 0.25
  },
  {
    "Compound": "CC[C@@H]([C@H](C)O)n1ncn(-c2ccc(N3CCN(c4ccc(OC[C@@H]5CO[C@@](Cn6cncn6)(c6ccc(F)cc6F)C5)cc4)CC3)cc2)c1=O",
    "Measure": "MIC90",
    "Display unit": "µg/mL",
    "Rel": "=",
    "Recorded result": 0.25
  }
]
